Origin of values: patent EP0093484A2

- System: Sarcina lutea 8340
- assay name: Human bacteria, MIC by serial dilution in nutrient agar
- Type: cell-based
- conditions used: Micrococcus luteus, nutrient agar with 5% chocolated horse blood, 18 hours at 37°C, read-out: MIC
As shown below, each of these compounds has a reported MIC value.

{"compound": "CC(=CC(=O)OCc1cccc(S(C)(=O)=O)c1)CC1OCC(CC2OC2C(C)C(C)O)C(O)C1O (centres unmarked) [Example 7, m-Methylsulfonylbenzyl monate A]", "MIC": "> 100 µg/mL"}
{"compound": "CC(=CC(=O)OCc1ccc(S(C)(=O)=O)cc1)CC1OCC(CC2OC2C(C)C(C)O)C(O)C1O (centres unmarked) [Example 3, p-Methylsulphonylbenzyl monate A]", "MIC": "> 100 µg/mL"}
{"compound": "CC(=CC(=O)OCc1cccc([S+](C)[O-])c1)CC1OCC(CC2OC2C(C)C(C)O)C(O)C1O (centres unmarked) [Example 6, m-Methylsulfinylbenzyl monate A]", "MIC": "> 100 µg/mL"}
{"compound": "CSc1ccc(COC(=O)C=C(C)CC2OCC(CC3OC3C(C)C(C)O)C(O)C2O)cc1 (centres unmarked) [Example 1, p-Methylthiobenzyl monate A]", "MIC": "> 100 µg/mL"}
{"compound": "CC(=CC(=O)OCc1ccc([S+](C)[O-])cc1)CC1OCC(CC2OC2C(C)C(C)O)C(O)C1O (centres unmarked) [Example 2, p- Methylsulphinylbenzyl monate A]", "MIC": "> 100 µg/mL"}
